Each recorded value in this set is attributed to PubChem BioAssay AID1159606.

- test summary: inhibitors of TWEAK-Fn14 signaling, primary screen, luciferase reporter cells, uHTS (AID 1159606)
- details: TWEAK-stimulated Fn14 reporter cells, luciferase luminescence, 8 h; at 10 µM
Screen size: about 360,000 compounds; about 7,300 (2%) were called active. Cut-off read from the data, not from the text of the source: active = inhibition above about 50%; inactive = the rest. The entries come from a sample that favours actives as a whole.
Field 'call' accepts active, inactive

[
  {
    "compound": "O=C(O)C(=Cc1ccc([N+](=O)[O-])cc1)CCc1ccccc1",
    "assigned category": "inactive"
  },
  {
    "compound": "CC1(C)OC(=O)C2=C(C[C@@H](C3CC3)O[C@H]2c2ccc(Cl)cc2)O1",
    "assigned category": "inactive"
  },
  {
    "compound": "C[C@@H]1CC2=C(C(=O)OC(C)(C)O2)[C@@H](C2CC2)O1",
    "assigned category": "inactive"
  },
  {
    "compound": "COc1ccc(C(=O)Nc2cc(S(=O)(=O)N3CCCC3)ccc2Cl)cc1",
    "assigned category": "inactive"
  },
  {
    "compound": "Nc1[nH]c(C(=O)c2ccccc2)c(-c2ccc(Br)cc2)c1C(=O)NC1CC1",
    "assigned category": "inactive"
  }
]

Consider the additional compound presented here.
Problem: What was the test verdict on `COc1ccc(C(=O)Nc2nc(-c3ccc(S(=O)(=O)N4CCOCC4)cc3)cs2)cc1` ?
Result: active
